B1: ZNF263 (parent)
chain: QPKKLHLCPLCGKNFSNNSNLIRH

variants of: B1; experiment: protein stability index of a GFP-peptide fusion (GPS, HEK-293T) (PSI 1-6); higher = more stable; conditions: c terminus: a fixed tail appended;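 also: lentivirally expressed fusions sorted by FACS into six bins by GFP to DsRed ratio, PSI derived from sequencing read proportions per bin multiplied by bin number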
Tick criterion met if protein stability index is 3 or greater. Tick criterion not met if protein stability index is less than 3.

variant-key | assigned-category
C11A | criterion met
S19F | criterion not met
C11R | criterion not met
K13T | criterion not met
S16E | criterion not met
N14Q | criterion met
L21K | criterion not met
L10M | criterion met
L5T | criterion not met
N20A | criterion met
N14Y | criterion not met
L10R | criterion met
S19N | criterion not met
N14D | criterion not met
L21Y | criterion not met
N17A | criterion not met
C8E | criterion met
F15W | criterion not met
K13E | criterion not met
L5I | criterion not met
S19E | criterion met
F15K | criterion not met
N17H | criterion not met
N18R | criterion met
K13Q | criterion not met
L10N | criterion met
K3E | criterion not met
F15L | criterion not met
C11V | criterion not met
I22M | criterion not met
C8D | criterion not met
P2Y | criterion not met
H6I | criterion not met
C11E | criterion met
N20Y | criterion not met
L21A | criterion not met
N17P | criterion not met
S19A | criterion not met
N20V | criterion not met
K4P | criterion not met
C8M | criterion met
L21F | criterion not met
G12L | criterion not met
L21G | criterion not met
K3M | criterion not met
